These measurements were taken from patent US10030020B2.

# Target Of Assay: UniProt:O08914
# Sequence (O08914 whole entry): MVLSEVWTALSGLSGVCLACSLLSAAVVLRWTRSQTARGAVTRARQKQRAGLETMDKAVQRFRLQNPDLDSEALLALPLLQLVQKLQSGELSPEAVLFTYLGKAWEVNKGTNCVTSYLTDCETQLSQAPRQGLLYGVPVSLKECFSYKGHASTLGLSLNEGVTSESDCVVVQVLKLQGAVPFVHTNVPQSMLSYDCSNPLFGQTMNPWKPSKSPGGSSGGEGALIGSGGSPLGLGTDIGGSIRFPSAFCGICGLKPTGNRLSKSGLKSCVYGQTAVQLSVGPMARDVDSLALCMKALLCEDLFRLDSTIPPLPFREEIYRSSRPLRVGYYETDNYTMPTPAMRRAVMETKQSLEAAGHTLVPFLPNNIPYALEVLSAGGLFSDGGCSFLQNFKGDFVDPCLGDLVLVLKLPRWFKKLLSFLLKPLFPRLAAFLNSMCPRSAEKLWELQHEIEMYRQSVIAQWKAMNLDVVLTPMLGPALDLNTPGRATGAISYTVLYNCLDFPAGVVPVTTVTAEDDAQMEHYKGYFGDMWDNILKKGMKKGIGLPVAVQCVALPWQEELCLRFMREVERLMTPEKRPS
# Experimental Protocol: Mouse brain proteomes from inhibitor treated mice (oral gavage, sacrificed 4 h after administration, ABPP analysis), FAAH
# Assay type: in vivo, mouse (C57Bl/6J)
# Study Conditions: 5 mg/kg oral gavage
Property Measured: FAAH % Inh 5 mg/kg (mouse)

• CCN1CCN(c2cc(C(F)(F)F)ccc2CN2CCCC23CCN(C(=O)OC(C(F)(F)F)C(F)(F)F)CC3)CC1 = # (# is <25%)
• O=C(OC(C(F)(F)F)C(F)(F)F)N1CCC2(CCCN2Cc2cc(Oc3cccnc3)cc(C(F)(F)F)c2)CC1 = # (# is <25%)
• NC(=O)C1CCN(Cc2cc(C(F)(F)F)ccc2CN2CCCC23CCN(C(=O)OC(C(F)(F)F)C(F)(F)F)CC3)CC1 = # (# is <25%)
• CCOc1ccc(CN2CCCC23CCN(C(=O)OC(C(F)(F)F)C(F)(F)F)CC3)cc1 = # (# is <25%)
• O=C(O)C1CCN(c2cc(C(F)(F)F)ccc2CN2CCCC23CCN(C(=O)OC(C(F)(F)F)C(F)(F)F)CC3)C1 (stereo not shown) = # (# is <25%)

Lab note: next compound to report on.
### Prompt Suppose we examine the compound CS(=O)(=O)N1CCN(c2cc(Cl)ccc2CN2CCCC23CCN(C(=O)OC(C(F)(F)F)C(F)(F)F)CC3)CC1 ; what FAAH % Inh 5 mg/kg (mouse) value has been reported?
### Response # (# is <25%)

###

# key: entry, value: inhibition at 1 µM
# Target Of Assay: MAGL (Mus musculus (Mouse))
# Sequence (O35678 whole entry): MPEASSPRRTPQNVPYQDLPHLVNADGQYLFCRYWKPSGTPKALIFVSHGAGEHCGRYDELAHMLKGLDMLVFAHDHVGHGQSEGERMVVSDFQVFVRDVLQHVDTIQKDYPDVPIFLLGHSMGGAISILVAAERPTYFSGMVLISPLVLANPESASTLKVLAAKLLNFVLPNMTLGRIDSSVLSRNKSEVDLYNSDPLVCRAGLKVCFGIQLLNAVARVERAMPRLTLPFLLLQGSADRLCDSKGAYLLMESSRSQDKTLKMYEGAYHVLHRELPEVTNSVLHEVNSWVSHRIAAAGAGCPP
# Experimental Protocol: In vitro competitive activity-based protein profiling (mouse brain membrane fraction or cell lysates), MAGL band
# Format: biochemical
# Study Conditions: 1 μM, mouse; read-out: MAGL % Inh 1 μM (mouse)

Worked cases, answers included:
- CS(=O)(=O)C1CN(c2cc(C(F)(F)F)ccc2CN2CCCC23CCN(C(=O)OC(C(F)(F)F)C(F)(F)F)CC3)C1: > 75%
- Cc1ccc(CN2CCCC23CCN(C(=O)OC(C(F)(F)F)C(F)(F)F)CC3)cc1C(=O)O: < 25%
- O=C(O)C1CCN(Cc2cc(C(F)(F)F)ccc2CN2CCCC23CCN(C(=O)OC(C(F)(F)F)C(F)(F)F)CC3)C1 (stereo not shown): > 75%

### Prompt Given the entry O=C(O)C1CCN(Cc2cc(C(F)(F)F)ccc2CN2CCCC23CCN(C(=O)OC(C(F)(F)F)C(F)(F)F)CC3)CC1 , report its measured inhibition at 1 µM.
### Response > 75%

### Prompt O=C(O)C1CCN(Cc2cc(CN3CCC4(CCN(C(=O)OC(C(F)(F)F)C(F)(F)F)CC4)C3)cc(C(F)(F)F)c2)CC1 , same question.
### Response > 75%

### Prompt Lookup O=C(O)C1CCCCN1c1cc(C(F)(F)F)ccc1CN1CCC2(CCN(C(=O)OC(C(F)(F)F)C(F)(F)F)CC2)C1 (stereo not shown)
### Response 25 to 75%

### Prompt Follow-up entry: O=C(O)c1ccc(CN2CCCC23CCN(C(=O)OC(C(F)(F)F)C(F)(F)F)CC3)c(C(F)(F)F)c1
### Response > 75%

### Prompt Next compound up: O=C(O)C1CCN(c2cc(CN3CCCC34CCN(C(=O)OC(C(F)(F)F)C(F)(F)F)CC4)cc(S(F)(F)(F)(F)F)c2)CC1
### Response > 75%

### Prompt Next compound: CC1(C(=O)O)CCCN(c2cc(CN3CCCC34CCN(C(=O)OC(C(F)(F)F)C(F)(F)F)CC4)cc(C(F)(F)F)c2)C1 (stereo not shown)
### Response > 75%

### Prompt Now this one: O=C(O)C1CCN(c2cc(CN3CCC4(CCN(C(=O)OC(C(F)(F)F)C(F)(F)F)CC4)C3)ccc2C(F)(F)F)CC1
### Response > 75%

###

# Target Of Assay: MAGL (Mus musculus (Mouse))
# Experimental Protocol: In vitro competitive activity-based protein profiling (mouse brain membrane fraction or cell lysates), MAGL band
# Format: biochemical
# Study Conditions: mouse proteome, competitive ABPP
Property Measured: IC50

- O=C(OC(C(F)(F)F)C(F)(F)F)N1CCC2(CCCN2Cc2ccc(C(F)(F)F)cc2N2CCCCCC2)CC1: 100 to 1000 nM
- O=C(OC(C(F)(F)F)C(F)(F)F)N1CCC2(CCCN2Cc2ccc(Cl)c(OCCF)c2)CC1: < 100 nM
- CS(=O)(=O)N1CCCc2cccc(CN3CCCC34CCN(C(=O)OC(C(F)(F)F)C(F)(F)F)CC4)c21: < 100 nM
- O=C(OC(C(F)(F)F)C(F)(F)F)N1CCC2(CCCN2Cc2cccc(N3CC4CCC(C3)O4)c2Cl)CC1: < 100 nM

### Prompt Given the entry O=C(OC(C(F)(F)F)C(F)(F)F)N1CCC2(CCCN2Cc2ccc(Cl)cc2N2CC3COCC3C2)CC1 (stereo not drawn) , report its measured IC50.
### Response < 100 nM

### Prompt Likewise for CC(C)N1CCc2cccc(CN3CCCC34CCN(C(=O)OC(C(F)(F)F)C(F)(F)F)CC4)c2C1 ?
### Response 100 to 1000 nM

### Prompt Thanks! And O=C(OC(C(F)(F)F)C(F)(F)F)N1CCC2(CCCN2Cc2ccc(N3CCCC3)c(Cl)c2)CC1 ?
### Response < 100 nM

### Prompt Next molecule up: O=C(OC(C(F)(F)F)C(F)(F)F)N1CCC2(CCCN2Cc2cccc(N3CCOCC3)c2Cl)CC1
### Response < 100 nM

### Prompt Same again, this time with CS(=O)(=O)N1CCN(c2cccc(CN3CCCC34CCN(C(=O)OC(C(F)(F)F)C(F)(F)F)CC4)c2Cl)CC1
### Response < 100 nM

### Prompt Try this molecule too: O=C(OC(C(F)(F)F)C(F)(F)F)N1CCC2(CCCN2Cc2cc(OC(F)(F)F)cc(N3CCOCC3)c2)CC1
### Response < 100 nM

### Prompt Please give the result for CC(C)CN1CCc2cccc(CN3CCCC34CCN(C(=O)OC(C(F)(F)F)C(F)(F)F)CC4)c2C1 too.
### Response 100 to 1000 nM

### Prompt Try this molecule next: COc1ccc(F)cc1CN1CCCC12CCN(C(=O)OC(C(F)(F)F)C(F)(F)F)CC2
### Response < 100 nM

### Prompt Try this molecule too: O=C(OC(C(F)(F)F)C(F)(F)F)N1CCC2(CCN(Cc3ccc(Cl)c(N4CCCC4)c3)C2)CC1
### Response < 100 nM

### Prompt Would you mind doing O=C(OC(C(F)(F)F)C(F)(F)F)N1CCC2(CCCN2Cc2ccc(Cl)cc2N2CCCCCC2)CC1 as well?
### Response 100 to 1000 nM

### Prompt Also O=C(OC(C(F)(F)F)C(F)(F)F)N1CCC2(CCCN2Cc2cccc(N3C4CCC3COC4)c2Cl)CC1 ?
### Response < 100 nM

###

# key: entry, value: inhibition at 1 µM
# Target Of Assay: ABHD6 (Mus musculus (Mouse), UniProt Q8R2Y0)
# Sequence (Q8R2Y0 whole entry): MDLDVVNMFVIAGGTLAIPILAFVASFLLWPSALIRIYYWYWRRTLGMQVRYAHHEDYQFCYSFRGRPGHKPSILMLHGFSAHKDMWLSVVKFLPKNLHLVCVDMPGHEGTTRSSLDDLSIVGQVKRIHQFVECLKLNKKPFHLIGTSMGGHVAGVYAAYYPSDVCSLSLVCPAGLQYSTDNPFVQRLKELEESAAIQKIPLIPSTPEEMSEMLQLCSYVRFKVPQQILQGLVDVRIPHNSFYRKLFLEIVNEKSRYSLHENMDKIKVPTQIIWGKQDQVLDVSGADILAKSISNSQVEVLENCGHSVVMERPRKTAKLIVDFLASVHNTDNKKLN
# Experimental Protocol: In vitro competitive activity-based protein profiling (mouse brain membrane fraction or cell lysates), ABHD6 band
# Assay type: biochemical
# Study Conditions: 1 μM, mouse proteome; read-out: ABHD6 % Inh 1 μM (mouse)
# Protocol: In Vitro Competitive Activity-Based Protein Profiling. Proteomes (mouse brain membrane fraction or cell lysates) (50 μL, 1.0 mg/mL total protein concentration) were preincubated with varying concentrations of inhibitors at 37° C. […] Following gel imaging, serine hydrolase activity was determined by measuring fluorescent intensity of gel bands corresponding to MAGL, ABHD6 and FAAH using ImageJ 1.43u software.

* O=C(OC(C(F)(F)F)C(F)(F)F)N1CCC2(CCCN2Cc2ccc(C(F)(F)F)cc2N2CCOCC2)CC1 [Example 67] | < 25%
* CC1(C(=O)O)CN(c2cc(CN3CCCC34CCN(C(=O)OC(C(F)(F)F)C(F)(F)F)CC4)cc(C(F)(F)F)c2)CCO1 (stereo not shown) [Example 195] | < 25%
* CC(=O)NC1CCN(c2cc(C(F)(F)F)ccc2CN2CCCC23CCN(C(=O)OC(C(F)(F)F)C(F)(F)F)CC3)CC1 [Example 93] | < 25%

### Prompt Requested read-out: inhibition at 1 µM. Entry: O=C(OC(C(F)(F)F)C(F)(F)F)N1CCC2(CCCN2Cc2ccc(C(F)(F)F)cc2N2CCC(F)(F)CC2)CC1 [Example 90]
### Response < 25%

### Prompt Here is the next compound: O=C(O)C1CN(c2cc(CN3CCCC34CCN(C(=O)OC(C(F)(F)F)C(F)(F)F)CC4)cc(C(F)(F)F)c2)CCO1 (stereo not shown) [Example 204]
### Response < 25%

### Prompt Check O=C(OC(C(F)(F)F)C(F)(F)F)N1CCC2(CCCN2Cc2cccc(Cl)c2)CC1 [Example 61] too.
### Response 25 to 75%

### Prompt What do you have for O=C(OC(C(F)(F)F)C(F)(F)F)N1CCC2(CCN(Cc3ccc(N4CCOCC4)c(Cl)c3)C2)CC1 [Example 138] ?
### Response ≥ 75%
